Recorded protein stability index by entry
B1: ZC3H15 (parent)
chain: RKADFKAGKALVISGREVFEFRPE

# Variants of: B1
# assay notes: protein stability index of a GFP-peptide fusion (GPS, HEK-293T) (PSI 1-6); higher = more stable;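 further: lentivirally expressed fusions sorted by FACS into six bins by GFP to DsRed ratio, PSI derived from sequencing read proportions per bin multiplied by bin number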
# cond: c terminus: a fixed tail appended
In your answer, state the number alone without any accompanying words.

In [3]: df
Out[3]:
                  polymer_sequence          recorded_metric  recorded_measurement
0  RKADFKAGKAGVISGREVFEFRPE [L11G]  protein stability index                  3.46
1  RKADFKAGKALVISGREWFEFRPE [V18W]  protein stability index                  2.86
2  RKADFKAGKALVISGLEVFEFRPE [R16L]  protein stability index                  2.42
3  RKADFKAGKALVISGREVTEFRPE [F19T]  protein stability index                   3.7
4  RKADFKAGKALVISGREVFEFGPE [R22G]  protein stability index                   3.4
5  RKADFKAGKALTISGREVFEFRPE [V12T]  protein stability index                  2.68

Briefly, protein stability index measured for RKADFKAGKALVISGREVPEFRPE [F19P] : 4.08

Briefly, protein stability index measured for RKADFKAGKALVISGREKFEFRPE [V18K] : 3.56

Briefly, protein stability index measured for RKADFKAGKALVISGREIFEFRPE [V18I] : 2.95

Briefly, protein stability index measured for RKADFKAGKALVISGREVFEFFPE [R22F] : 2.98

Briefly, protein stability index measured for RKADFKAGKALVISGCEVFEFRPE [R16C] : 1.89
